Test system: db/db mice
Test: Pancreatic tissue protecting action: number and maximum area of Langerhans islets in pancreatic sections of db/db mice
Format: in vivo
Settings: 1 μg/animal orally once a day for 42 days, 43rd day, negative sample 44.5 ± 17.7
Below is a list of entries, each paired with its recorded Maximum area of Langerhans islets on administration × 10^3 value.

In the examples that follow, each entry is paired with its recorded Maximum area of Langerhans islets on administration × 10^3.
>  <compound>
CC[C@H](CC[C@@H](C)[C@H]1CC[C@H]2[C@@H]3CC=C4C[C@@H](O)CC[C@]4(C)[C@H]3CC[C@]12C)C(C)C [Control sample, β-sitosterol, reference compound]

>  <measured.on>
db/db mice

>  <observed.measurement>
69.1 ± 40.6 × 10^3 μm^2

$$$$
>  <compound>
CC(C)C(C)CCC(C)C1CCC2C3=CCC4C(C)C(O)CCC4(C)C3CCC21C (stereo not shown) [Test sample 2, 4-methyl-ergost-7-en-3-ol]

>  <measured.on>
db/db mice

>  <observed.measurement>
178.7 ± 143.4 × 10^3 μm^2

$$$$
>  <compound>
CC(C)CCCC(C)C1CCC2C3=CCC4C(C)C(O)CCC4(C)C3CCC21C (stereo not shown) [Test sample 1, 4-methyl-cholest-7-en-3-ol]

>  <measured.on>
db/db mice

>  <observed.measurement>
160.0 ± 116.0 × 10^3 μm^2

$$$$

Then there is this compound:
Task item: Item under review: CCC(CCC(C)C1CCC2C3=CCC4C(C)C(O)CCC4(C)C3CCC21C)C(C)C (stereo not shown) [Test sample 3, 4-methyl-stigmast-7-en-3-ol] . Reported Maximum area of Langerhans islets on administration × 10^3?
Reply: 122.6 ± 51.4 × 10^3 μm^2

Cited source: patent US8101594B2
